Target: PI3K-δ (PI3K(p1108/p857) (h)) (Homo sapiens, UniProt O00329)
Sequence (O00329 whole entry): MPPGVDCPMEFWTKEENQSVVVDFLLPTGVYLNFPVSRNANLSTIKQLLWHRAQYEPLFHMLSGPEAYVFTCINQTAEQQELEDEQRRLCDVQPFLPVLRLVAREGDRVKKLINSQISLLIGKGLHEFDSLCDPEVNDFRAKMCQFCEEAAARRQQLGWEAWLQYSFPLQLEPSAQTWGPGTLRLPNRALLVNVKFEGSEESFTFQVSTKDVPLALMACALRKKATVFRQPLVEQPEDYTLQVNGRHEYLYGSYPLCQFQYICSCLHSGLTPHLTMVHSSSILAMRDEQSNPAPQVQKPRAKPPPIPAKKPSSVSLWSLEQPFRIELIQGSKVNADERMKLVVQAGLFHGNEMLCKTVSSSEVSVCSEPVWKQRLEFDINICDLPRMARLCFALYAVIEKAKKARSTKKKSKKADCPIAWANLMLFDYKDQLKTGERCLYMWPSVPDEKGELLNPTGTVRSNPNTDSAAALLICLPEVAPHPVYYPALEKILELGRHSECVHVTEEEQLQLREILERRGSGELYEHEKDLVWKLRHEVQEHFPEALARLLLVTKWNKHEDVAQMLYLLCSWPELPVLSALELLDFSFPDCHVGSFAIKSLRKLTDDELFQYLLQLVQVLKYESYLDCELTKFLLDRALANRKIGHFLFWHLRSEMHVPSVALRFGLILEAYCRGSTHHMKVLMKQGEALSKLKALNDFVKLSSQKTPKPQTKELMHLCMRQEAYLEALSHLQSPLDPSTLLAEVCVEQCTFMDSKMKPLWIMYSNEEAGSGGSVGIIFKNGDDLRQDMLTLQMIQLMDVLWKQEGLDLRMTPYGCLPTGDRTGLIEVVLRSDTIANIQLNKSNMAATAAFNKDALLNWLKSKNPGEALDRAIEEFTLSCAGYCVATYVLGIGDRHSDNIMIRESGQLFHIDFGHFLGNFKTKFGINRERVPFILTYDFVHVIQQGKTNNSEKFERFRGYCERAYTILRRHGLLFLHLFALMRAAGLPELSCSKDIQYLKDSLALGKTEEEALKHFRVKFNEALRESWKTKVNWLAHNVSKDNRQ
Sequence (P27986 whole entry partner): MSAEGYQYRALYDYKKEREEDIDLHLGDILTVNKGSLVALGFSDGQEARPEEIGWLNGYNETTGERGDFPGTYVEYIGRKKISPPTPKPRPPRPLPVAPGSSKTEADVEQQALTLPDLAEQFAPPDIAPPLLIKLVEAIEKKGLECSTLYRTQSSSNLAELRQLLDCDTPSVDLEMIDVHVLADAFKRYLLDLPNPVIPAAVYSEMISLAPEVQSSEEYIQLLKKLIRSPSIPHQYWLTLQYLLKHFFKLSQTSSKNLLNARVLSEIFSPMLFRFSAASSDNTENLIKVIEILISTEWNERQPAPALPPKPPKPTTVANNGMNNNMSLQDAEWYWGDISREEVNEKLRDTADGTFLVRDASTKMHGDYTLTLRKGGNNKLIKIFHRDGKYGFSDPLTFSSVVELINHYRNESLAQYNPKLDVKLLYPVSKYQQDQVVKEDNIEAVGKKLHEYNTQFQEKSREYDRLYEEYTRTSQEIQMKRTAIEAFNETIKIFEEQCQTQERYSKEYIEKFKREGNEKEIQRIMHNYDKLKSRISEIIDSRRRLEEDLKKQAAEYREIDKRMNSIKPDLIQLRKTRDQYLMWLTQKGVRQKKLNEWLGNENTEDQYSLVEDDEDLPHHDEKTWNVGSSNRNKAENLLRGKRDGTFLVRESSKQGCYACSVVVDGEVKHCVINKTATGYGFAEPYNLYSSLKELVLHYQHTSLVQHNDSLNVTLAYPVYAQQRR
Assay: Evaluation of inhibitory activity against PI3K-δ (HTRF kinase assay)
Type: biochemical
Conditions: compound concentration 0.1 μM; read-out: EXP_VALUE(% Inhibition) PI3K-δ 0.1 μM
quantity_kind: inhibition at 0.1 µM (%)

>>> measured_value("C[C@H](Nc1ncnc2[nH]ccc(=O)c12)c1c(Cl)c2cccc(-c3ccc4nccn4c3)c2c(=O)n1-c1ccccc1")
93
>>> measured_value("C[C@H](Nc1ncnc2[nH]ccc(=O)c12)c1c(Cl)c2cccc(-c3cnn(C)c3)c2c(=O)n1-c1ccccc1")
115
>>> measured_value("C[C@H](Nc1ncnc2[nH]ccc(=O)c12)c1c(Br)c2cccc(-c3cnn(C)c3)c2c(=O)n1-c1ccccc1")
102
>>> measured_value("C[C@H](Nc1ncnc2[nH]ccc(=O)c12)c1c(Cl)c2cccc(N(C)Cc3ccccc3)c2c(=O)n1-c1ccccc1")
62
>>> measured_value("C[C@H](Nc1ncnc2[nH]ccc(=O)c12)c1c(Cl)c2cccc(-c3ccc(S)cc3)c2c(=O)n1-c1ccccc1")
14
>>> measured_value("COc1ccccc1Oc1cccc2c(Cl)c([C@H](C)Nc3ncnc4[nH]ccc(=O)c34)n(-c3ccccc3)c(=O)c12")
85
>>> measured_value("C[C@H](Nc1ncnc2[nH]ccc(=O)c12)c1c(Cl)c2cccc(NC3CCOCC3)c2c(=O)n1-c1ccccc1")
75

* * *

Target: DNA-PK(h) (Homo sapiens, UniProt P78527)
Assay: Evaluation of inhibitory activity against DNA-PK (HTRF kinase assay, GST-cMyc-p53 substrate)
Format: biochemical
Conditions: compound concentration 0.01 μM; read-out: EXP_VALUE(% Inhibition) DNA-PK(h) 0.01 μM
Label rule, in plain words: inhibition at 0.01 µM of 20% and up is yes (1), under 20% is no (0).

>>> answer_label("CSc1ccc(-c2cccc3c(Cl)c([C@H](C)Nc4ncnc5[nH]ccc(=O)c45)n(-c4ccccc4)c(=O)c23)cc1")
"yes (1)"
>>> answer_label("C[C@H](Nc1ncnc2[nH]ccc(=O)c12)c1c(Cl)c2cccc(-c3ccc4nccn4c3)c2c(=O)n1-c1ccccc1")
"yes (1)"
>>> answer_label("C[C@H](Nc1ncnc2[nH]ccc(=O)c12)c1c(Cl)c2cccc(-c3cc(O)c(O)c(F)c3)c2c(=O)n1-c1ccccc1")
"yes (1)"
>>> answer_label("C[C@H](Nc1ncnc2[nH]ccc(=O)c12)c1c(Cl)c2cccc(N3C[C@]4(C)C[C@H]3CC(C)(C)C4)c2c(=O)n1-c1ccccc1")
"no (0)"
>>> answer_label("C[C@H](Nc1ncnc2[nH]ccc(=O)c12)c1c(Cl)c2cccc(C(=O)NC(C)(C)C)c2c(=O)n1-c1ccccc1")
"no (0)"
>>> answer_label("C[C@H](Nc1ncnc2[nH]ccc(=O)c12)c1c(Cl)c2cccc(OCC(F)(F)F)c2c(=O)n1-c1ccccc1")
"yes (1)"
>>> answer_label("C[C@H](Nc1ncnc2[nH]ccc(=O)c12)c1c(Cl)c2cccc(-c3cncnc3)c2c(=O)n1-c1ccccc1")
"yes (1)"
>>> answer_label("C[C@H](Nc1ncnc2[nH]ccc(=O)c12)c1c(Cl)c2cccc(-c3cc(F)c4c(c3)NCCO4)c2c(=O)n1-c1ccccc1")
"yes (1)"
>>> answer_label("C[C@H](Nc1ncnc2[nH]ccc(=O)c12)c1c(Cl)c2cccc(-c3ncccn3)c2c(=O)n1-c1ccccc1")
"no (0)"
>>> answer_label("CCCC(=O)c1cccc2c(Cl)c([C@H](C)Nc3ncnc4[nH]ccc(=O)c34)n(-c3ccccc3)c(=O)c12")
"yes (1)"
>>> answer_label("C[C@H](Nc1ncnc2[nH]ccc(=O)c12)c1c(Cl)c2cccc(-c3ccc(C(=O)O)cc3)c2c(=O)n1-c1ccccc1")
"yes (1)"
>>> answer_label("C[C@H](Nc1ncnc2[nH]ccc(=O)c12)c1c(Cl)c2cccc(-c3ccc(SC(C)(C)C)cc3)c2c(=O)n1-c1ccccc1")
"no (0)"
>>> answer_label("C[C@H](Nc1ncnc2[nH]ccc(=O)c12)c1c(Cl)c2cccc(B3OC(C)(C)C(C)(C)O3)c2c(=O)n1-c1ccccc1")
"yes (1)"

* * *

Target: PI3K-δ (PI3K(p1108/p857) (h)) (Homo sapiens, UniProt O00329)
Assay: Evaluation of inhibitory activity against PI3K-δ (HTRF kinase assay)
Type: biochemical
Conditions: compound concentration 0.01 μM; read-out: EXP_VALUE(% Inhibition) PI3K-δ 0.01 μM
Here, each record is paired with measured inhibition at 0.01 µM data.
quantity_kind: inhibition at 0.01 µM (%)

>>> measured_value("C[C@H](Nc1ncnc2[nH]ccc(=O)c12)c1c(Cl)c2cccc(-c3cnc(N4CCCC4)nc3)c2c(=O)n1-c1ccccc1")
75
>>> measured_value("CCCC(=O)c1cccc2c(Cl)c([C@H](C)Nc3ncnc4[nH]ccc(=O)c34)n(-c3ccccc3)c(=O)c12")
76
>>> measured_value("CCNc1cccc2c(Cl)c([C@H](C)Nc3ncnc4[nH]ccc(=O)c34)n(-c3ccccc3)c(=O)c12")
22
>>> measured_value("C[C@H](Nc1ncnc2[nH]ccc(=O)c12)c1c(Cl)c2cccc(-c3ccc(C=O)cc3)c2c(=O)n1-c1ccccc1")
73

* * *

Target: PI3K-δ (PI3K(p1108/p857) (h)) (Homo sapiens, UniProt O00329)
Test: Evaluation of inhibitory activity against PI3K-δ (HTRF kinase assay)
Assay type: biochemical
Conditions: compound concentration 0.01 μM; read-out: EXP_VALUE(% Inhibition) PI3K-δ 0.01 μM
Each entry gets N if its inhibition at 0.01 µM stays under 40%, and Y if its inhibition at 0.01 µM is 40% or above.

>>> answer_label("COc1ncc(-c2cccc3c(Cl)c([C@H](C)Nc4ncnc5[nH]ccc(=O)c45)n(-c4ccccc4)c(=O)c23)cc1C#N")
"Y"
>>> answer_label("C[C@H](Nc1ncnc2[nH]ccc(=O)c12)c1c(Cl)c2cccc(N3CCCC3)c2c(=O)n1-c1ccccc1")
"Y"
>>> answer_label("C[C@H](Nc1ncnc2[nH]ccc(=O)c12)c1c(Cl)c2cccc([C@@H](C)O)c2c(=O)n1-c1ccccc1")
"Y"
>>> answer_label("Cc1c[nH]c2ccc(-c3cccc4cc([C@H](C)Nc5ncnc6[nH]ccc(=O)c56)n(-c5ccccc5)c(=O)c34)cc12")
"Y"
>>> answer_label("CCCNC(=O)c1cccc2c(Cl)c([C@H](C)Nc3ncnc4[nH]ccc(=O)c34)n(-c3ccccc3)c(=O)c12")
"Y"
>>> answer_label("C[C@H](Nc1ncnc2[nH]ccc(=O)c12)c1c(Cl)c2cccc(-c3ccc(Oc4ccccc4)nc3)c2c(=O)n1-c1ccccc1")
"Y"
>>> answer_label("CCOc1c(OC)ccc(-c2cccc3c(Cl)c([C@H](C)Nc4ncnc5[nH]ccc(=O)c45)n(-c4ccccc4)c(=O)c23)c1F")
"N"
>>> answer_label("C[C@H](Nc1ncnc2[nH]ccc(=O)c12)c1c(Cl)c2cccc(CN3CCOCC3)c2c(=O)n1-c1ccccc1")
"Y"
>>> answer_label("C[C@H](Nc1ncnc2[nH]ccc(=O)c12)c1c(Cl)c2cccc(NS(=O)(=O)c3ccc(F)cc3)c2c(=O)n1-c1ccccc1")
"N"
>>> answer_label("C[C@H](Nc1ncnc2[nH]ccc(=O)c12)c1c(Cl)c2cccc(-c3ccc(N4CCCCC4)cc3)c2c(=O)n1-c1ccccc1")
"Y"
>>> answer_label("Cc1ccc(-c2cccc3c(Cl)c([C@H](C)Nc4ncnc5[nH]ccc(=O)c45)n(-c4ccccc4)c(=O)c23)c(C)n1")
"Y"
>>> answer_label("C[C@H](Nc1ncnc2[nH]ccc(=O)c12)c1c(Cl)c2cccc(C#Cc3ccc(-c4ccccc4)cc3)c2c(=O)n1-c1ccccc1")
"N"
>>> answer_label("C[C@H](Nc1ncnc2[nH]ccc(=O)c12)c1c(Cl)c2cccc(-c3cnc4ccccc4n3)c2c(=O)n1-c1ccccc1")
"N"

* * *

Biological target: UniProt P78527
Experiment: Evaluation of inhibitory activity against DNA-PK (HTRF kinase assay, GST-cMyc-p53 substrate)
Assay type: biochemical
Conditions: compound at 0.1 μM; read-out: EXP_VALUE(% Inhibition) DNA-PK(h) 0.1 μM
quantity_kind: inhibition at 0.1 µM (%)

>>> measured_value("CC(C)[S@@](=N)(=O)c1cccc2c(Cl)c([C@H](C)Nc3ncnc4[nH]ccc(=O)c34)n(-c3ccccc3)c(=O)c12")
23
>>> measured_value("C[C@H](Nc1ncnc2[nH]ccc(=O)c12)c1c(Cl)c2cccc(S(=O)(=O)c3ccc(F)cc3)c2c(=O)n1-c1ccccc1")
23
>>> measured_value("CC(=O)c1ncc(-c2cccc3c(Cl)c([C@H](C)Nc4ncnc5[nH]ccc(=O)c45)n(-c4ccccc4)c(=O)c23)cn1")
46
>>> measured_value("C[C@H](Nc1ncnc2[nH]ccc(=O)c12)c1c(Cl)c2cccc(-c3cc4ccccc4[nH]3)c2c(=O)n1-c1ccccc1")
19
>>> measured_value("C[C@H](Nc1ncnc2[nH]ccc(=O)c12)c1cc2cccc(-c3cnc(C(C)(C)O)nc3)c2c(=O)n1-c1ccccc1")
16
>>> measured_value("C[C@H](Nc1ncnc2[nH]ccc(=O)c12)c1c(Cl)c2cccc(-c3cccs3)c2c(=O)n1-c1ccccc1")
68
